Ref: patent US20030199671A1

target of assay: T1, human IgG2 (human, UniProt P01859-1 1-326 = IgG part)
T1 construct: Calbiochem; plasma IgG2 in anisotropy studies, myeloma-derived (cat. 400122) in batch/column studies; also called hIgG2
T1 sequence (P01859 other isoform, or with tags, fused parts or gaps): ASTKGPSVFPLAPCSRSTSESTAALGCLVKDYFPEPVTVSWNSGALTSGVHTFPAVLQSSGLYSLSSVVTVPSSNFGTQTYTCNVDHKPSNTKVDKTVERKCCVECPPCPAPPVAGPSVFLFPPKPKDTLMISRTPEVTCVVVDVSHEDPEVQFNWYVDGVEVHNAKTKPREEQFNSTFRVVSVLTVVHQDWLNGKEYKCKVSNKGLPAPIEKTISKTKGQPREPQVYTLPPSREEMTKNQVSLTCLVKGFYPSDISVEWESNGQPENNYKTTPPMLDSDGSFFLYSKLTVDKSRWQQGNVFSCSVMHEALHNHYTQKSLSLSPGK
measurement protocol: anisotropy; pH 4.0 + salt
experimental endpoint: Kd (nM)

>  <binder>
Ac-AGTYWCTFWELPCDPAPGPEGGGK-NH2 (cysteine pairing not given here, immobilised in batch/column assays) [DX404]

>  <experimental endpoint>
Kd

>  <measured number>
2000

$$$$
